Origin of measurements: patent US20250332112A1

Entries annotated with measured Final Product % EE
- measurement.description: Particle characteristics of LNPs containing EGFP mRNA and novel ionizable lipids
- Assay type: physicochemical
- test.settings: Table 20; EGFP mRNA LNP 1.6:54.6:32.8:10.9
Give the value in % but do not write % after it.

These solved cases illustrate the format of a correct answer.
compound: CCCCCCCCCCC(CCCCCCC(=O)OCCC(CCCCC)CCCCC)N(CCCCCCCCCC)C(=O)CCCCN1CCCC1 (stereo not shown) [Compound 89]
experimental.readout: Final Product % EE
unit.tag: %
reading: 99
//
compound: CCCCC/C=C\CCCC(CCC/C=C\CCCCC)C(CCC/C=C\CCCCC)OC(=O)CCCCN(C)C (stereo not shown) [Compound 13-B43, reference compound]
experimental.readout: Final Product % EE
unit.tag: %
reading: 98

Looking up CCCCCCCCCCC(CCCCCCC(=O)OCCC(CCCCCC)CCCCCC)N(CCCCCCCCCC)C(=O)CCCCN1CCCC1 (stereo not shown) [Compound 90] , I see its Final Product % EE listed as 99

Looking up CCCCCCCCCCC(CCCCCCC(=O)OCCC(CCCCCCC)CCCCCCC)N(CCCCCCCCCC)C(=O)CCCCN1CCCC1 (stereo not shown) [Compound 91] , I see its Final Product % EE listed as 99

---

- measurement.description: Parent ionizable lipid remaining in liver at 24 h after EGFP mRNA LNP (LC-MS)
- Assay type: in vivo
- test.settings: Table 30; 24 h after IV 0.5 mg/kg EGFP mRNA LNP, female BALB/c mice (n = 4)
Mark Criterion met for Parent ionizable lipid remaining in liver, Average under 30 nmol/g liver, Criterion not met if at or over.

molecule: CCCCCCCCCCN(C(=O)CCCN(C)C)C(CCCCCCCCC)CCCCCCC(F)C(=O)OC(CCCCCCCC)CCCCCCCC (stereo not shown) [Compound 115]
class: Criterion met

I wonder whether CCCCCCCCCCN(C(=O)CCCN(C)C)C(CCCCCCCCC)CCCCCCC(F)C(=O)OC(CCCCC)CCCCC (stereo not shown) [Compound 112] has Parent ionizable lipid remaining in liver, Average below 30 nmol/g liver. Can you tell?
Criterion met

I wonder whether CCCCCCCCCCC(CCCCCCC(=O)OC(CCCCCCCC)CCCCCCCC)N(CCCCCCC(F)(F)C(=O)OC(CCCCCCCC)CCCCCCCC)C(=O)CCCN(C)C (stereo not shown) [Compound 118] has Parent ionizable lipid remaining in liver, Average below 30 nmol/g liver. Can you tell?
Criterion not met

I wonder whether CCCCCCCCCCN(C(=O)CCCN(C)C)C(CCCCCCCCC)CCCCC(F)(F)C(=O)OC(CCCCC)CCCCC (stereo not shown) [Compound 108] has Parent ionizable lipid remaining in liver, Average below 30 nmol/g liver. Can you tell?
Criterion met

I wonder whether CCCCCCCCCCC(CCCCCCCC(=O)OCC(CCCCCC)CCCCCCCC)N(CCCCCCCCCC)C(=O)CCN(C)C (stereo not shown) [Compound 119] has Parent ionizable lipid remaining in liver, Average below 30 nmol/g liver. Can you tell?
Criterion met

I wonder whether CCCCC/C=C\CCCC(CCC/C=C\CCCCC)C(CCC/C=C\CCCCC)OC(=O)CCCCN(C)C (stereo not shown) [Compound 13-B43, reference compound] has Parent ionizable lipid remaining in liver, Average below 30 nmol/g liver. Can you tell?
Criterion not met

I wonder whether CCCCCCCCCCC(CCCCCCC(=O)OCCC(CCCCCC)CCCCCC)N(CCCCCCCCCC)C(=O)OCCCN(C)C (stereo not shown) [Compound 105] has Parent ionizable lipid remaining in liver, Average below 30 nmol/g liver. Can you tell?
Criterion met
